Provenance of the data: patent US5760063A

Reported MIC values for a set of molecules
System: S. aureus

{"MOLECULE": "N#CC(=NNc1ccc(OC(F)(F)F)cc1)C(=O)c1ccc(Cl)cc1 [Example 18]", "MIC": "0.5 to 10 µM"}
{"MOLECULE": "N#CC(=NNc1ccc(Cl)cc1)C(=O)c1ccc(Cl)cc1 [Example 19]", "MIC": "> 10 µM"}
{"MOLECULE": "N#CC(=NNc1ccc([N+](=O)[O-])cc1)C(=O)c1ccc(Cl)cc1 [Example 17]", "MIC": "0.5 to 10 µM"}
{"MOLECULE": "C[S+]([O-])c1ccc(NN=C(C#N)C(=O)c2ccc(Cl)cc2)cc1 (stereo not drawn) [Example 5]", "MIC": "> 10 µM"}
{"MOLECULE": "CC(=O)N(N=C(C#N)C(=O)c1ccc(Cl)cc1)c1ccc(Cl)cc1 [Example 14]", "MIC": "> 10 µM"}
{"MOLECULE": "N#CC(=NNc1ccc(F)cc1)C(=O)c1ccc(OC(F)(F)F)cc1 [Example 21]", "MIC": "0.5 to 10 µM"}
